Target: CCR1 (Homo sapiens)
Sequence (P32246 1-355): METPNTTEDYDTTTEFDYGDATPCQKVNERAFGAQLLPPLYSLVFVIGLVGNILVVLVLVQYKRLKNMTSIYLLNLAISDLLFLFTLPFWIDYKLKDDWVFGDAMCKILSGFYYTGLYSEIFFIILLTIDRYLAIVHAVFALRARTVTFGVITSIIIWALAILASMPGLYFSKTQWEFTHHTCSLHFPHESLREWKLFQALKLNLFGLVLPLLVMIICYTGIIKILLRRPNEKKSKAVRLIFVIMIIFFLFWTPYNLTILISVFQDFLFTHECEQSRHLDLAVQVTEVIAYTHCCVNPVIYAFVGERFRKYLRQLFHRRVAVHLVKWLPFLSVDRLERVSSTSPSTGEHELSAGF
Assay: Method A: calcium flux in CCR1 transfected cells (Fluo-4 NW, FLIPR TETRA), block of the CCR1/MIP-1α interaction
Format: cell-based
Details: Method A: Fluo-4 NW, MIP-1 alpha at EC80
Measured endpoint: IC50 (nM)

CCCC(NC(=O)c1cncc2c1cnn2-c1ccc(F)cc1)c1cncc(S(N)(=O)=O)c1 (stereo not drawn) : 0.4
CC(NC(=O)c1cncc2c1cnn2-c1ccc(F)cc1)c1ccc(Br)nc1 (stereo not drawn) : 30

A. CCC[C@H](NC(=O)c1cncc2c1cnn2-c1ccc(F)cc1)c1cccnc1
B. COC(=O)CNS(=O)(=O)c1ccc(CNC(=O)c2cncc3c2cnn3-c2ccc(F)cc2)cc1
Determine, for A and B , which has the greater value of IC50. Mark your selection by writing its label.
A
(A: 5 nM, B: 3 nM)

----------
Biological target: CCR1 (Homo sapiens)
Assay: Method B: calcium flux in CCR1 transfected cells (Calcium 4 dye, […] FDSS6000), block of the CCR1/MIP-1α interaction
Format: cell-based
Conditions: Method B: Calcium 4 dye, MIP-1alpha at EC80
pIC50: −log10 of the molar value.
Measured endpoint: pIC50

Some entries whose results are on file:
CC[C@H](NC(=O)c1cncc2c1cnn2-c1ccc(F)cc1)c1ccnc(N2CCS(=O)(=O)CC2)c1 : 7.92
C[C@H](NC(=O)c1cncc2c1cnn2-c1ccc(F)cc1)c1cc(NCC(N)=O)nc(S(C)(=O)=O)c1 : 9.22

P. CC[C@H](NC(=O)c1cncc2c1cnn2-c1ccc(F)cc1)c1cc(Cl)nc(S(C)(=O)=O)c1
Q. CCC[C@H](NC(=O)c1cncc2c1cnn2-c1ccc(F)cc1)c1ccnc(S(=O)(=O)CC)c1
R. C[C@H](NC(=O)c1cncc2c1cnn2-c1ccc(F)cc1)c1cccc(S(C)(=O)=O)c1
S. CCOC(=O)Cn1ccc([C@H](CC)NC(=O)c2cncc3c2cnn3-c2ccc(F)cc2)n1
T. O=C(NCc1cnc(Br)s1)c1cncc2c1cnn2-c1ccc(F)cc1
Task field, ranking: reported pIC50, descending order. Give the labels in the order requested.
Q, P, R, S, T

----------
Biological target: UniProtKB P32246
Assay: Method A: calcium flux in CCR1 transfected cells (Fluo-4 NW, FLIPR TETRA), block of the CCR1/MIP-1α interaction
Type: cell-based
Conditions: Method A: Fluo-4 NW, MIP-1 alpha at EC80
pIC50: −log10 of the molar value.
Measured endpoint: pIC50

C[C@H](NC(=O)c1cncc2c1cnn2-c1ccc(F)cc1)c1cccc(S(C)(=O)=O)n1 : 8.22
CN(C1CCNCC1)S(=O)(=O)c1ccc(CNC(=O)c2cncc3c2cnn3-c2ccc(F)cc2)cc1 : 8.70
C[C@H](NC(=O)c1cncc2c1cnn2-c1ccc(Cl)cc1)c1cncc(S(C)(=O)=O)c1 : 8.40
C[C@@H](O)CNS(=O)(=O)c1ccc(CNC(=O)c2cncc3c2cnn3-c2ccc(F)cc2)cc1 : 8.70
CC[C@H](NC(=O)c1cncc2c1cnn2-c1ccc(F)cc1)c1cccnc1 : 7.82

A. O=C(NCc1ccc(CS(=O)(=O)N2CCOCC2)cc1)c1cncc2c1cnn2-c1ccc(F)cc1
B. CC(=O)OCCN(C)S(=O)(=O)c1ccc(CNC(=O)c2cncc3c2cnn3-c2ccc(F)cc2)cc1
C. C[C@H](NC(=O)c1cncc2c1cnn2-c1ccc(F)cc1)c1cccc(Br)n1
Rank the items in ascending order with respect to pIC50. Give the labels in the order requested.
A, C, B
(A: 7.70, C: 8.30, B: 8.70)

a. C[C@H](O)CNS(=O)(=O)c1ccc(CNC(=O)c2cncc3c2cnn3-c2ccc(F)cc2)cc1
b. COc1cc(CNC(=O)c2cncc3c2cnn3-c2ccc(F)cc2)ccn1
Determine, for a and b , which has the greater value of pIC50. Mark your selection by writing its label.
a
(a: 9.00, b: 8.70)

A. CN(C)CCN(c1ccc(CNC(=O)c2cncc3c2cnn3-c2ccc(F)cc2)cn1)S(C)(=O)=O
B. NC1CCN(S(=O)(=O)c2ccc(CNC(=O)c3cncc4c3cnn4-c3ccc(F)cc3)cc2)CC1
C. O=C(NCc1cccc(C(F)(F)F)c1)c1c[n+]([O-])cc2c1cnn2-c1ccc(F)cc1
D. CNS(=O)(=O)c1ccc(CNC(=O)c2cncc3c2cnn3-c2ccc(F)cc2)cc1F
E. C=CC[C@H](NC(=O)c1cncc2c1cnn2-c1ccc(F)cc1)c1ccnc(S(=O)(=O)CC)c1
Rank the items in ascending order with respect to pIC50. Give the labels in the order requested.
A, C, D, E, B
(A: 7.66, C: 8.22, D: 9.00, E: 9.22, B: 9.52)

a. O=C(NCc1ccc(S(=O)(=O)NC2CCOCC2)nc1)c1cncc2c1cnn2-c1ccc(F)cc1
b. CC[C@H](NC(=O)c1cncc2c1cnn2-c1ccc(F)cc1)c1cncc(Br)c1
Determine, for a and b , which has the greater value of pIC50. Mark your selection by writing its label.
b

A. NC(=O)CNS(=O)(=O)c1ccc(CNC(=O)c2cncc3c2cnn3-c2ccc(F)cc2)cc1
B. O=C(NCc1ccc(CS(=O)(=O)NC2CCCCC2)cc1)c1cncc2c1cnn2-c1ccc(F)cc1
Param metric = pIC50; output whichever of A , B has the minimum value. Mark your selection by writing its label.
A
